System: KLK3 mRNA
TEST NAME: KLK3 mRNA (AR target gene) in C4-2B MR cells
Format: cell-based, human
DETAILS: 0.20 μM
Oligonucleotides are written 5' to 3', each unit as a sugar letter and its base; * is a phosphorothioate linkage, no mark a phosphodiester; rarer units and linkages stand in square brackets, end groups in braces. Plain capitals give the bases only. e = 2'-O-(2-methoxyethyl) (MOE); l = locked nucleic acid (LNA); k = constrained ethyl (cEt); [5mC] = 5-methylcytosine; d = 2'-deoxy (DNA)
Returns one of true (1) or false (0); true (1) when Percent inhibition of KLK3 mRNA in C4-2B MR cells is >= 40%.

- SUBSTANCE: "347526 (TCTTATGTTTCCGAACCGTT; sugars from the 5' end e5 d10 e5, backbone and methylation of C not given here) [compound 347526]"
  ASSIGNED LABEL: "false (0)"
- SUBSTANCE: "549434 (k[5mC]*kT*kA*dA*dA*d[5mC]*dT*dT*d[5mC]*d[5mC]*d[5mC]*dG*dT*kG*kG*k[5mC]) [compound 549434]"
  ASSIGNED LABEL: "true (1)"
- SUBSTANCE: "549372 (kA*kA*kG*dT*dT*dG*dT*dA*dG*dT*dA*dG*dT*k[5mC]*kG*k[5mC]) [compound 549372]"
  ASSIGNED LABEL: "false (0)"

Incoming: Is reported Percent inhibition of KLK3 mRNA in C4-2B MR cells greater than or equal to 40% here: 554221 (ACCAAGTTTCTTCAGC; sugars from the 5' end l3 d10 l3, all phosphorothioate, methylation of C not given here) [compound 554221]
Outgoing: false (0)

Incoming: State whether the measured Percent inhibition of KLK3 mRNA in C4-2B MR cells reaches 40%, counting equality as reaching it, for 549458 (kG*kT*kT*dG*dA*dT*dT*dT*dA*dA*dT*dG*dG*kT*kT*kG) [compound 549458]
Outgoing: true (1)
